Cited source: patent US20250263753A1

# target: ATM (Homo sapiens (Human))
# Sequence (Q13315 whole entry): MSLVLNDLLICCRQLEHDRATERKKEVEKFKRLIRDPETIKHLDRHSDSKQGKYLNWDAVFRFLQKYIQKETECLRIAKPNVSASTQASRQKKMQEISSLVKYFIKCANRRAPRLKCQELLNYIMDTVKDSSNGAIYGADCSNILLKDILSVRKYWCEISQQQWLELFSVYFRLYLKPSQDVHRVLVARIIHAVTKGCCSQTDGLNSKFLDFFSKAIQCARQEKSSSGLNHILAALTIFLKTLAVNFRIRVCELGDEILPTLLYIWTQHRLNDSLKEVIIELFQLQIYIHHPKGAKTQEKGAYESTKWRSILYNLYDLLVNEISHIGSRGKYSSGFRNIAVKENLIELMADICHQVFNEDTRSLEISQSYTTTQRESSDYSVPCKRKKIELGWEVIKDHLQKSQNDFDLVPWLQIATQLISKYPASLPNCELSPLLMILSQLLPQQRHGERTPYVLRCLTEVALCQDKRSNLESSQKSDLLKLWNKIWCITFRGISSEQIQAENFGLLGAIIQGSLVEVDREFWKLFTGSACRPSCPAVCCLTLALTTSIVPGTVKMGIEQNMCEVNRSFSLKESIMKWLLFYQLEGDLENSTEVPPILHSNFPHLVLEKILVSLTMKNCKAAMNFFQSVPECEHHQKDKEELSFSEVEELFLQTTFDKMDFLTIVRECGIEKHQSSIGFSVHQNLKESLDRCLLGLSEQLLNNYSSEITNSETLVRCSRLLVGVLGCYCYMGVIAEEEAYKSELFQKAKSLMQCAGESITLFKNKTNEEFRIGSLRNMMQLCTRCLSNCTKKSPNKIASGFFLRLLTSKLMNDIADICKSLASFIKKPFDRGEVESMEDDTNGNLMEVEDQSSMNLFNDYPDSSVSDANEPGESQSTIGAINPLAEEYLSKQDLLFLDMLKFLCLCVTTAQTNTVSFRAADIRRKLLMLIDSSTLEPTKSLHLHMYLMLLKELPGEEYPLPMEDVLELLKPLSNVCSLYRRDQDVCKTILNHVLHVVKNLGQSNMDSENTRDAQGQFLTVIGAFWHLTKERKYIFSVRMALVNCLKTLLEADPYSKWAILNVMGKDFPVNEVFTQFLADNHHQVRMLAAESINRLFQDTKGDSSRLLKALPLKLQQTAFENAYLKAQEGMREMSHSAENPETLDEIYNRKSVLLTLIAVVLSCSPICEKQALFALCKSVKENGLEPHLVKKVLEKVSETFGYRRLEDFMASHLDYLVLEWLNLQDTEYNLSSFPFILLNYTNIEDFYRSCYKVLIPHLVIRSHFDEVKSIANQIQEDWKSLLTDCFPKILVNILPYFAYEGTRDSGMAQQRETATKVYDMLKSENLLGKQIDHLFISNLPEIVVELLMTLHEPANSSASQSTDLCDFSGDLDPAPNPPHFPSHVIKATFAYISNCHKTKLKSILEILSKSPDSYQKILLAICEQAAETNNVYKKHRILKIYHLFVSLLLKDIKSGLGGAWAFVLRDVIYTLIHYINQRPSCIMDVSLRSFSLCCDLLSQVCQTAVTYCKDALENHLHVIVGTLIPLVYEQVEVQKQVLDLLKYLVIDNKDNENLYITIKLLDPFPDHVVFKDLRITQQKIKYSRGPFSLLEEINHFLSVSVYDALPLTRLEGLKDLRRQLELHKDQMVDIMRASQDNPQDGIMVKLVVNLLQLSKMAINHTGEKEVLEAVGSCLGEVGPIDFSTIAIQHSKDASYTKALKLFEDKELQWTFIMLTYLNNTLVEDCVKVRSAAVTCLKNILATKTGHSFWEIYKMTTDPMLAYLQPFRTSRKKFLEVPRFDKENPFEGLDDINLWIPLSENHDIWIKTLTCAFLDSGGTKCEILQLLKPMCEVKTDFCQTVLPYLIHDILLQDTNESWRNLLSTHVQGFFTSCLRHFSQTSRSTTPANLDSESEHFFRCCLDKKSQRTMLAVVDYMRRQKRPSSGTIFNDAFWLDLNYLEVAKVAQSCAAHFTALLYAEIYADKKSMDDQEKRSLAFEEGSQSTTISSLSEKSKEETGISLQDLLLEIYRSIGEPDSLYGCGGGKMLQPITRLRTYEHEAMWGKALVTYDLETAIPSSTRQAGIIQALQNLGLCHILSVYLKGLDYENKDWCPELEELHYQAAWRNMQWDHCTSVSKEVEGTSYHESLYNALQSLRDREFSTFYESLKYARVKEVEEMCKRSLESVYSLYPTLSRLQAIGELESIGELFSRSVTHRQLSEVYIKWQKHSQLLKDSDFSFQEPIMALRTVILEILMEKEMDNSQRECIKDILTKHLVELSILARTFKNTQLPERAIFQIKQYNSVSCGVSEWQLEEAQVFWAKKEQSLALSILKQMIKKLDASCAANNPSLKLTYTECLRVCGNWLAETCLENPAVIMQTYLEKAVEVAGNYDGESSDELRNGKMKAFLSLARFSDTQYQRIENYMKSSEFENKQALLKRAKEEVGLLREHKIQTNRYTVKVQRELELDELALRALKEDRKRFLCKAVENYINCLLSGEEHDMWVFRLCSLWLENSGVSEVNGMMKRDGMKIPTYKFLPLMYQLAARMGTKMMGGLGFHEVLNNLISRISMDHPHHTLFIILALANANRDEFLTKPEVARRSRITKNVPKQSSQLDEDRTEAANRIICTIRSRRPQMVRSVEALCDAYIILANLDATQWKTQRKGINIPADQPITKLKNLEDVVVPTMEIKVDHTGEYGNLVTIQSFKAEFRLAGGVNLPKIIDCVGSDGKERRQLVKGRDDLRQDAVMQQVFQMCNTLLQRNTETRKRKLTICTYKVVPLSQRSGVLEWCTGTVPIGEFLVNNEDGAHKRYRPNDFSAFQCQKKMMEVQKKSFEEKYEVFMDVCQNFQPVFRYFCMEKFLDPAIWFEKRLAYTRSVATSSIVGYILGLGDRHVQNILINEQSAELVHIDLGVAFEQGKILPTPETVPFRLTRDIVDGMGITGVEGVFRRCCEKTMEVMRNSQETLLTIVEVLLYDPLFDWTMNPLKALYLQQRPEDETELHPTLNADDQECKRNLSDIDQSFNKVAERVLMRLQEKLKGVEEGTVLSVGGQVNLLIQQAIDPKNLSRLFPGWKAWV
# assay_remarks: ATM biochemical assay (Reaction Biology HTRF kinase assay, 10 μM ATP)
# conditions: class symbol
endpoint: IC50

Q. What IC50 value was documented for this compound, Cc1cc2c(cc1Nc1ncc3c(n1)n(C14CCC(C#N)(CC1)CC4)c(=O)n3C)OCO2 ?
A. 10 to 100 nM

Q. Input Cc1cc2ncnn2cc1Nc1ncc2c(n1)n(C1CC3CCC1CC3)c(=O)n2C (stereo not shown)
A. 10 to 100 nM

Q. Please answer likewise for Cc1cc2ncnn2cc1Nc1ncc2c(n1)n(C13CC(C(F)(F)F)(C1)C3)c(=O)n2C
A. 1 to 10 nM

Q. // repeat for Cc1cc2ncccc2cc1Nc1ncc2c(n1)n(C13CC(F)(C1)C3)c(=O)n2C and report
A. 10 to 100 nM

Q. Another compound to look at: Cc1cc2ncnn2cc1Nc1ncc2c(n1)N(C13CC(F)(C1)C3)C(=O)C21CC1
A. 100 to 1000 nM

Q. Now consider Cc1cc2c(cc1Nc1ncc3c(n1)n(C14CC(F)(C1)C4)c(=O)n3C)OCCO2 and answer again.
A. 100 to 1000 nM

Q. What do you get for COC12CCC(n3c(=O)n(C)c4cnc(Nc5cn6ncnc6cc5C)nc43)(CC1)CC2 ?
A. 1 to 10 nM

Q. Moving on to the next compound: Cc1cc2ncnn2cc1Nc1ncc2c(n1)n(C13CCC(O)(CC1)C3)c(=O)n2C
A. 10 to 100 nM

Q. Similarly, COC12CCC(N3CC(=O)N(C)c4cnc(Nc5cn6ncnc6cc5C)nc43)(CC1)C2 ?
A. 10 to 100 nM

Q. Now the compound Cc1cc2c(cc1Nc1ncc3c(n1)n(C14CCC(O)(CC1)C4)c(=O)n3C)OCO2
A. 100 to 1000 nM

Q. Next compound up: Cc1cc2ncnn2cc1Nc1ncc2c(C)nn(C34CC(C3)C4)c2n1
A. 100 to 1000 nM

Q. Now give it for Cc1cc2c(cc1Nc1ncc3c(n1)n(C14CCC(O)(CC1)CC4)c(=O)n3C)OCO2 too.
A. 10 to 100 nM

Q. Query Cc1cc2c(cc1Nc1ncc3c(n1)n(C14CC(C#N)(C1)C4)c(=O)n3C)OCO2 next
A. 100 to 1000 nM

Q. Similarly, Cc1cc2nsnc2cc1Nc1ncc2c(n1)N(C13CC(F)(C1)C3)CC(=O)N2C ?
A. 100 to 1000 nM

Q. Please give the result for COC12CCC(n3c(=O)n(C)c4cnc(Nc5cc6c(cc5C)OCO6)nc43)(CC1)C2 too.
A. 100 to 1000 nM

Q. Moving on to the next compound: Cc1cc2ncnn2cc1Nc1ncc2c(n1)N(C13CCC(O)(CC1)C3)C(=O)C21CC1
A. 100 to 1000 nM

Q. Thanks! And COCC12CC(n3c(=O)n(C)c4cnc(Nc5cn6ncnc6cc5C)nc43)(C1)C2 ?
A. 1 to 10 nM

Q. Entry to check: Cc1cc2nccnc2cc1Nc1ncc2c(C)nn(C34CC(C3)C4)c2n1
A. 10 to 100 nM

Q. // next record Cc1cc2c(cc1Nc1ncc3c(n1)n(C14CC(C(F)(F)F)(C1)C4)c(=O)n3C)OCO2
A. 100 to 1000 nM
